- TARGET_OR_TEST_SYSTEM: α5β3γ2 GABAA/BzR (Homo sapiens, UniProt P18507+P31644)
- ASSAY_NAME: Competition binding to HEK cell membranes, α5β3γ2
- Parameters: expressed in transfected cells
- CONDITION_LABEL: read-out: Ki α5
REPORTED_PROPERTY: Ki (nM)
Answers are plain numbers, in nM.

[[record]]
molecule = "O=C(OC(C(F)(F)F)C(F)(F)F)c1ncn2c1C1CCCN1C(=O)c1ccccc1-2 (centres unmarked) [MMB-III-18]"
target_or_test_system = "α5β3γ2 GABAA/BzR (Homo sapiens, UniProt P18507+P31644)"
unit_spec = "nM"
obs_value = 14


Please look at the items below and tell me Ki for each one, in order.
1. CC[C@H](C)OC(=O)c1cc2c(cn1)[nH]c1ccccc12 [CM-A50 (S)]
2. Cc1nnc2n1-c1ccc(Br)cc1C(c1ccccc1)=NC2
3. COc1ccc(-n2nc3c4ccc(OC)cc4[nH]cc-3c2=O)cc1
4. CN1Cc2c(C(=O)OC(C)(C)C)ncn2-c2ccc(O)cc2C1=O

// result
1: 144; 2: 0.624; 3: 0.52; 4: 0.14
